- protocol-details: Pharmacokinetics after oral gavage to male beagle dogs with different pre-treatments (Amgen study 150528)
- Type: in vivo
- experimental-setup: male, beagle, dog, plasma, po, 3 mg/kg, Phase 3, pentagastrin pre-treatment (stomach pH ~2.0); 3 mg/kg PO, male beagle dogs
metric-name: Cmax

[[record]]
compound = "CO[C@]1(CN2CCN3CCCC[C@@H]3C2)/C=C/C[C@H](C)[C@@H](C)S(=O)(=O)NC(=O)c2ccc3c(c2)N(C[C@@H]2CC[C@H]21)C[C@@]1(CCCc2cc(Cl)ccc21)CO3 [AMG 397 Crystalline Hydrate]"
result_value = "450 nM"


###

- protocol-details: Pharmacokinetics after oral gavage to male beagle dogs with different pre-treatments (Amgen study 150528)
- Assay type: in vivo
- experimental-setup: Phase 3, pentagastrin pre-treatment (stomach pH ~2.0); 3 mg/kg PO, male beagle dogs
metric-name: Cmax (nM)

[[record]]
smiles_structure = "CO[C@]1(CN2CCN3CCCC[C@@H]3C2)/C=C/C[C@H](C)[C@@H](C)S(=O)(=O)NC(=O)c2ccc3c(c2)N(C[C@@H]2CC[C@H]21)C[C@@]1(CCCc2cc(Cl)ccc21)CO3"
unit_tag = "nM"
result_value = 780


###

- protocol-details: Pharmacokinetics after oral gavage to male beagle dogs with different pre-treatments (Amgen study 150528)
- Type: in vivo
- experimental-setup: Phase 2, famotidine pre-treatment (stomach pH ~6.5); 3 mg/kg PO, male beagle dogs
metric-name: Cmax (nM)

[[record]]
compound = "CO[C@]1(CN2CCN3CCCC[C@@H]3C2)/C=C/C[C@H](C)[C@@H](C)S(=O)(=O)NC(=O)c2ccc3c(c2)N(C[C@@H]2CC[C@H]21)C[C@@]1(CCCc2cc(Cl)ccc21)CO3 [AMG 397 Crystalline Hydrate]"
unit_tag = "nM"
result_value = 260

[[record]]
compound = "CO[C@]1(CN2CCN3CCCC[C@@H]3C2)/C=C/C[C@H](C)[C@@H](C)S(=O)(=O)NC(=O)c2ccc3c(c2)N(C[C@@H]2CC[C@H]21)C[C@@]1(CCCc2cc(Cl)ccc21)CO3 [AMG 397 Amorphous]"
unit_tag = "nM"
result_value = 900


###

- protocol-details: Pharmacokinetics after oral gavage to male beagle dogs with different pre-treatments (Amgen study 150528)
- Format: in vivo
- experimental-setup: male, beagle, dog, plasma, po, 3 mg/kg, Phase 4, pentagastrin pre-treatment + P-gp inhibitor GF120918; 3 mg/kg PO, male beagle dogs
metric-name: AUC(0-t) (µM·h)

[[record]]
compound = "CO[C@]1(CN2CCN3CCCC[C@@H]3C2)/C=C/C[C@H](C)[C@@H](C)S(=O)(=O)NC(=O)c2ccc3c(c2)N(C[C@@H]2CC[C@H]21)C[C@@]1(CCCc2cc(Cl)ccc21)CO3 [AMG 397 Crystalline Hydrate]"
metric_name = "AUC(0-t)"
unit_tag = "µM·h"
result_value = 16.3


###

- protocol-details: Pharmacokinetics after oral gavage to male beagle dogs with different pre-treatments (Amgen study 150528)
- Format: in vivo
- experimental-setup: male, beagle, dog, plasma, po, 3 mg/kg, Phase 4, pentagastrin pre-treatment + P-gp inhibitor GF120918; 3 mg/kg PO, male beagle dogs; read-out: T½ (converted)
metric-name: half-life

[[record]]
compound = "CO[C@]1(CN2CCN3CCCC[C@@H]3C2)/C=C/C[C@H](C)[C@@H](C)S(=O)(=O)NC(=O)c2ccc3c(c2)N(C[C@@H]2CC[C@H]21)C[C@@]1(CCCc2cc(Cl)ccc21)CO3 [AMG 397 Crystalline Hydrate]"
metric_name = "half-life"
result_value = "25 h"


###

- protocol-details: Solubility of AMG 397 in common spray-drying solvents
- Assay type: physicochemical
- experimental-setup: ethyl acetate, organic solvent or mixture; read-out: Solubility
metric-name: solubility (µg/mL)

[[record]]
compound = "CO[C@]1(CN2CCN3CCCC[C@@H]3C2)/C=C/C[C@H](C)[C@@H](C)S(=O)(=O)NC(=O)c2ccc3c(c2)N(C[C@@H]2CC[C@H]21)C[C@@]1(CCCc2cc(Cl)ccc21)CO3 [AMG 397]"
unit_tag = "µg/mL"
result_value = 750


###

- protocol-details: Pharmacokinetics after oral gavage to male beagle dogs with different pre-treatments (Amgen study 150528)
- Type: in vivo
- experimental-setup: male, beagle, dog, plasma, po, 3 mg/kg, Phase 2, famotidine pre-treatment; compared to Phase 1 of the same form; 3 mg/kg PO; read-out: Relative % F
metric-name: bioavailability (%)

[[record]]
molecule = "CO[C@]1(CN2CCN3CCCC[C@@H]3C2)/C=C/C[C@H](C)[C@@H](C)S(=O)(=O)NC(=O)c2ccc3c(c2)N(C[C@@H]2CC[C@H]21)C[C@@]1(CCCc2cc(Cl)ccc21)CO3 [AMG 397 Crystalline Hydrate]"
unit_tag = "%"
result_value = 113


###

- protocol-details: Pharmacokinetics after oral gavage to male beagle dogs with different pre-treatments (Amgen study 150528)
- Format: in vivo
- experimental-setup: male, beagle, dog, plasma, po, 3 mg/kg, Phase 1, no pre-treatment; 3 mg/kg PO, male beagle dogs; read-out: T½ (converted)
metric-name: half-life (h)

[[record]]
compound = "CO[C@]1(CN2CCN3CCCC[C@@H]3C2)/C=C/C[C@H](C)[C@@H](C)S(=O)(=O)NC(=O)c2ccc3c(c2)N(C[C@@H]2CC[C@H]21)C[C@@]1(CCCc2cc(Cl)ccc21)CO3 [AMG 397 Crystalline Hydrate]"
result_value = 17.3


###

- protocol-details: Solubility of AMG 397 in common spray-drying solvents
- Type: physicochemical
- experimental-setup: methanol, organic solvent or mixture; read-out: Solubility
- Protocol: Solvent selection: The solubility of AMG 397 was measured in solvents commonly used for spray drying. […] Based on the solubility data, tetrahydrofuran (THF) was selected as a solvent for the initial spray drying-work and further work was conducted in DCM. AMG 397 is known to form solvates with many solvents. The formation of a solvate can lead to precipitation from solution due to the lower solubility in the solvent. […]
metric-name: solubility (µg/mL)

[[record]]
smiles_structure = "CO[C@]1(CN2CCN3CCCC[C@@H]3C2)/C=C/C[C@H](C)[C@@H](C)S(=O)(=O)NC(=O)c2ccc3c(c2)N(C[C@@H]2CC[C@H]21)C[C@@]1(CCCc2cc(Cl)ccc21)CO3"
result_value = 90


###

- protocol-details: Solubility of AMG 397 in common spray-drying solvents
- Type: physicochemical
- experimental-setup: acetone, organic solvent or mixture; read-out: Solubility
metric-name: solubility (µg/mL)

[[record]]
smiles_structure = "CO[C@]1(CN2CCN3CCCC[C@@H]3C2)/C=C/C[C@H](C)[C@@H](C)S(=O)(=O)NC(=O)c2ccc3c(c2)N(C[C@@H]2CC[C@H]21)C[C@@]1(CCCc2cc(Cl)ccc21)CO3"
metric_name = "solubility"
result_value = 370


###

- protocol-details: Solubility of AMG 397 in common spray-drying solvents
- Type: physicochemical
- experimental-setup: organic solvent or mixture; DCM, concentrations achieved; read-out: Solubility in DCM
metric-name: solubility

[[record]]
smiles_structure = "CO[C@]1(CN2CCN3CCCC[C@@H]3C2)/C=C/C[C@H](C)[C@@H](C)S(=O)(=O)NC(=O)c2ccc3c(c2)N(C[C@@H]2CC[C@H]21)C[C@@]1(CCCc2cc(Cl)ccc21)CO3"
result_value = "> 100 mg/mL"


###

- protocol-details: Pharmacokinetics after oral gavage to male beagle dogs with different pre-treatments (Amgen study 150528)
- Assay type: in vivo
- experimental-setup: male, beagle, dog, plasma, po, 3 mg/kg, Phase 3, pentagastrin pre-treatment (stomach pH ~2.0); 3 mg/kg PO, male beagle dogs; read-out: T½ (converted)
metric-name: half-life

[[record]]
molecule = "CO[C@]1(CN2CCN3CCCC[C@@H]3C2)/C=C/C[C@H](C)[C@@H](C)S(=O)(=O)NC(=O)c2ccc3c(c2)N(C[C@@H]2CC[C@H]21)C[C@@]1(CCCc2cc(Cl)ccc21)CO3 [AMG 397 Crystalline Hydrate]"
result_value = "23.3 h"


###

- protocol-details: Pharmacokinetics after oral gavage to male beagle dogs with different pre-treatments (Amgen study 150528)
- Type: in vivo
- experimental-setup: male, beagle, dog, plasma, po, 3 mg/kg, Phase 4, pentagastrin pre-treatment + P-gp inhibitor GF120918; 3 mg/kg PO, male beagle dogs
metric-name: Cmax (nM)

[[record]]
molecule = "CO[C@]1(CN2CCN3CCCC[C@@H]3C2)/C=C/C[C@H](C)[C@@H](C)S(=O)(=O)NC(=O)c2ccc3c(c2)N(C[C@@H]2CC[C@H]21)C[C@@]1(CCCc2cc(Cl)ccc21)CO3 [AMG 397 Crystalline Hydrate]"
result_value = 600


###

- protocol-details: Pharmacokinetics after oral gavage to male beagle dogs with different pre-treatments (Amgen study 150528)
- Type: in vivo
- experimental-setup: male, beagle, dog, plasma, po, 3 mg/kg, Phase 2, famotidine pre-treatment (stomach pH ~6.5); 3 mg/kg PO, male beagle dogs; read-out: Tmax
metric-name: Tmax (h)

[[record]]
compound = "CO[C@]1(CN2CCN3CCCC[C@@H]3C2)/C=C/C[C@H](C)[C@@H](C)S(=O)(=O)NC(=O)c2ccc3c(c2)N(C[C@@H]2CC[C@H]21)C[C@@]1(CCCc2cc(Cl)ccc21)CO3 [AMG 397 Crystalline Hydrate]"
metric_name = "Tmax"
result_value = 12.8

